- Test system: CAKI-1 renal
- assayName: NCI-60 one-dose screen, 48 h (100 = growth as untreated, 0 = no growth, -100 = all killed)
- statedConditions: 10 µM
Compounds without any hit were thinned out: in the full panel of roughly 83,000, 20% have a hit.
Classify as follows. Reported growth greater than or equal to 90%: criterion met. Reported growth below: criterion not met.

Query: Has COC(=O)c1c(C)nc(Nc2nc3ccccc3s2)nc1-c1ccc(Cl)cc1Cl a recorded growth greater than or equal to 90%?
Response: criterion met

Query: Check if growth >= 90% (inclusive). Item: CC(=O)OC1Oc2ccccc2-c2oc(=O)c(-c3cc(=O)oc4cc(O)ccc34)cc21 (stereo unspecified)
Response: criterion met

Query: API: above_or_equal(metric=growth, cutoff=90%) for item CCNC1(NC#N)CCCCC1
Response: criterion met

Query: Does the compound O=C(c1ccccc1)C(Nc1ccccc1)c1ccccc1 (stereo unspecified) have recorded growth that is 90% or more?
Response: criterion not met

Query: Exam item: decide whether the reported growth for COc1cc(-c2nc(-c3nnc(-c4cccnc4)o3)c3ccccn23)cc(OC)c1OC is at least 90%.
Response: criterion met

Query: Decide: growth of COc1cccc(C(=O)NNc2nc(N3CCOCC3)nc(N3CCN(C(c4ccccc4)c4ccccc4)CC3)n2)c1 >= 90%?
Response: criterion not met
